assay: Stability to Phase I metabolism in human S9 liver fraction; conditions: after 90 minutes, 37° C.
metric: residual percentage in HUMAN S9 FRACTION

Lab note: each molecule below needs its residual percentage in HUMAN S9 FRACTION filled in.
1. NC(=O)c1cc(-c2nnn(Cc3ccc(-c4nnc(C(F)F)o4)cc3)n2)cnc1N [compound 76]
2. CC(c1ccc(-c2nnc(C(F)F)o2)c(F)c1)n1cc(-c2ccc(N)nc2)nn1 (centres unmarked) [compound 186]
3. Nc1ccc(-c2cnn(Cc3ccc(-c4nnc(C(F)F)o4)cc3)c2)cn1 [compound 211]
4. CC(=O)Nc1cccc(-c2cn(Cc3ccc(-c4nnc(C(F)F)o4)cn3)nn2)c1 [compound 37]
5. Nc1ccc(-c2cn(Cc3ccc(-c4nnc(C(F)F)o4)cc3)cn2)cn1 [compound 151]
6. Nc1nc2ccc(-c3cn(Cc4ccc(-c5nnc(C(F)F)o5)cn4)nn3)cc2s1 [Compd. 1]
7. Cn1c(N)nc2cc(-c3nnn(Cc4ccc(-c5nnc(C(F)F)o5)cc4)n3)ccc21 [compound 11]

1: 53%; 2: 88%; 3: 63%; 4: 71%; 5: 83%; 6: 93%; 7: 70%
